These entries and their values trace back to ChEMBL document CHEMBL1129117.

Target chain: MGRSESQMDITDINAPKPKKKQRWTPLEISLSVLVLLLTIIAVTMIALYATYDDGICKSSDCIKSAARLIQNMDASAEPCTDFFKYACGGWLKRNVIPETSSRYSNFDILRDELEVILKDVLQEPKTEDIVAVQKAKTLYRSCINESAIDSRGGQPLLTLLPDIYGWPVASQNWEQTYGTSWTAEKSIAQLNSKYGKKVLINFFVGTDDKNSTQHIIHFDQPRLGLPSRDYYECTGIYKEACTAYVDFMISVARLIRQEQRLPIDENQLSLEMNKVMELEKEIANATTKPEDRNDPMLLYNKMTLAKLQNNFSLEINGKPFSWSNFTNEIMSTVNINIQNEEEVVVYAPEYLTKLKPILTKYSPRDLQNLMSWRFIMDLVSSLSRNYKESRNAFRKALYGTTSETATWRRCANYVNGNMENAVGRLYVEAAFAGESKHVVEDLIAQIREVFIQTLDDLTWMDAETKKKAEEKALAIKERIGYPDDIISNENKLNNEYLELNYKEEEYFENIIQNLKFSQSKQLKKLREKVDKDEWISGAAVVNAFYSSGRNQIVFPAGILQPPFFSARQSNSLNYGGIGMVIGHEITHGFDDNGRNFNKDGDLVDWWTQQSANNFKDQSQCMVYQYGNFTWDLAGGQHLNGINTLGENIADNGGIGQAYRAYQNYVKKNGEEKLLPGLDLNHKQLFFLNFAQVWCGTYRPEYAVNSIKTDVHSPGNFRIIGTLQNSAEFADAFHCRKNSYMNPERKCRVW
MEASURED_ATTRIBUTE: pIC50
Would you please state pIC50, meaning minus log10 of the concentration in mol/L, as a bare number?

stdin: pIC50 for O=C(N[C@@H](Cc1ccccc1)P(=O)(O)CC1(C(=O)N[C@@H](Cc2c[nH]c3ccccc23)C(=O)O)CCCC1)c1ccc([N+](=O)[O-])cc1 ?
stdout: 7.26
